- tested_target: GDP-bound KRAS wild-type protein (Homo sapiens, UniProt P01116)
- Sequence (P01116 1-188 isoform P01116-2): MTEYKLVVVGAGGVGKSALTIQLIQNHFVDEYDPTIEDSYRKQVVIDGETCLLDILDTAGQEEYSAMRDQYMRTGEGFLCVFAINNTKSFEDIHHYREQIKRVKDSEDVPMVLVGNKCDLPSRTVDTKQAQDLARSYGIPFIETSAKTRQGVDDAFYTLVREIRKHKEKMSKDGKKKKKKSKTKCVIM
- protocol_text: Binding to KRAS by surface plasmon resonance (SPR), dissociation constant KD
- reported_conditions: 1:1 binding model
Quick reference: Kd of the listed items.
Numbers only here, please. The scale is nM.

Example results:
CCC[C@H]1C(=O)N[C@@H]([C@@H](C)CC)C(=O)N(C)CC(=O)N(C)[C@H]2C/C=C\CCN(C2=O)[C@@H](Cc2ccc(C)cc2)C(=O)N(C)CC(=O)N[C@@H](CCc2ccc(Cl)c(Cl)c2)C(=O)N2C[C@H](OC3CCC3)C[C@H]2C(=O)NC2(CC(C)(C)C2)C(=O)N(C)[C@@H](C(CC)CC)C(=O)N(C)[C@H](C(=O)N(C)C)CC(=O)N1C
0.81
CCO[C@@H]1C[C@H]2C(=O)NC3(CC(C)(C)C3)C(=O)N(C)[C@@H](C3CCCC3)C(=O)N(C)[C@H](C(=O)N(C)C)CC(=O)N(C)[C@@H]([C@@H](C)OC)C(=O)N[C@@H]([C@@H](C)CC)C(=O)N3CCC[C@H]3C(=O)N(C)[C@H]3C/C=C\CCN(C3=O)[C@@H](Cc3ccc(C(F)(F)F)cc3)C(=O)N(C)CC(=O)N[C@@H](CCc3ccc(C(F)(F)F)c(OC)c3)C(=O)N2C1
0.4

Now consider the entry below.
Lab note: need Kd with GDP-bound KRAS wild-type protein (Homo sapiens, UniProt P01116) for entry CCC[C@H]1C(=O)N[C@@H]([C@@H](C)CC)C(=O)N2CCC[C@H]2C(=O)N(C)[C@H]2C/C=C\CCN(C2=O)[C@@H](CC2CCC(F)(F)CC2)C(=O)N(C)CC(=O)N[C@@H](CCc2ccc(C(F)(F)F)c(OC)c2)C(=O)N2C[C@@H](C)C[C@H]2C(=O)N(C)C2(CCC2)C(=O)N(C)[C@@H](C2CCCC2)C(=O)N(C)[C@H](C(=O)N(C)C)CC(=O)N1C , please look it up. 0.85

====

- Tested on: human lung cancer strain NCI-H441
- Format: cell-based
Where a SMILES comes first, the peptide text is derived from it. Bridges are numbered along the chain shown (N, C = ends). [ ]: non-standard residue; d: D form. The star is where a group is joined. hPhe(3-Cl-4-CF3) = N[C@@H](CCc1ccc(C(F)(F)F)c(Cl)c1)C(=O)O; NPrPhe(4-CF3) = CCCN[C@@H](Cc1ccc(C(F)(F)F)cc1)C(=O)O; NMeGly(cPent) = CN[C@H](C(=O)O)C1CCCC1; Piperidide(4-Me) = CC1CCN(*)CC1; NMeD = CN[C@@H](CC(=O)O)C(=O)O; NMeL = CN[C@@H](CC(C)C)C(=O)O; NMeA = CN[C@@H](C)C(=O)O; Ac5c = NC1(C(=O)O)CCCC1; Aze = O=C(O)[C@@H]1CCN1; Sar = CNCC(=O)O
observed_property: pIC50
Reminder that pIC50 is minus the log10 of a molar concentration.

Example results:
CCCN1C(=O)[C@@H]2CCN2C(=O)[C@H](C)N(C)C(=O)[C@H]([C@@H](C)CC)NC(=O)[C@H](CC(C)C)N(C)C(=O)C[C@@H](C(=O)N2CCC(C)CC2)N(C)C(=O)[C@H](C2CCCC2)N(C)C(=O)C2(CCCC2)NC(=O)[C@@H]2CCCN2C(=O)[C@H](CCc2ccc(C(F)(F)F)c(Cl)c2)NC(=O)CN(C)C(=O)[C@@H]1Cc1ccc(C(F)(F)F)cc1 [PP0185] ([NMeL]I[NMeA][Aze][NPrPhe(4-CF3)][Sar][hPhe(3-Cl-4-CF3)]P[Ac5c][NMeGly(cPent)][NMeD]-{Piperidide(4-Me)}; lactam N-11)
7.49
CCO[C@@H]1C[C@H]2C(=O)NC3(CCC3)C(=O)N(C)[C@@H](C3CCCC3)C(=O)N(C)[C@H](C(=O)N3CCOCC3)CC(=O)N(C)[C@@H](CC(C)C)C(=O)N[C@@H]([C@@H](C)CC)C(=O)N(C)CC(=O)N(C)[C@H]3CCCCCN(C3=O)[C@@H](Cc3ccc(F)cc3)C(=O)N(C)CC(=O)N[C@@H](CCc3ccc(C(F)(F)F)c(Cl)c3)C(=O)N2C1 [PP0968]
7.41

Now consider the entry below.
Lab note: need pIC50 with human lung cancer strain NCI-H441 for entry CCO[C@@H]1C[C@H]2C(=O)NC3(CC(C)(C)C3)C(=O)N(C)[C@@H](C3CCCC3)C(=O)N(C)[C@H](C(=O)N(C)C)CC(=O)N(C)[C@@H]([C@H](C)OC)C(=O)N[C@@H]([C@@H](C)CC)C(=O)N(C3CC3)CC(=O)N(C)[C@H]3C/C=C\CCN(C3=O)[C@@H](Cc3ccc(C)cc3)C(=O)N(C)CC(=O)N[C@@H](CCc3ccc(C(F)(F)F)c(OC)c3)C(=O)N2C1 [PP3191] , please look it up. 7.41
